assay.target: human M4 receptor (Homo sapiens, UniProt P08173)
Construct: expressed in transfected cells; host or cells: CHO-K1 cells (membranes)
Sequence (P08173 whole entry): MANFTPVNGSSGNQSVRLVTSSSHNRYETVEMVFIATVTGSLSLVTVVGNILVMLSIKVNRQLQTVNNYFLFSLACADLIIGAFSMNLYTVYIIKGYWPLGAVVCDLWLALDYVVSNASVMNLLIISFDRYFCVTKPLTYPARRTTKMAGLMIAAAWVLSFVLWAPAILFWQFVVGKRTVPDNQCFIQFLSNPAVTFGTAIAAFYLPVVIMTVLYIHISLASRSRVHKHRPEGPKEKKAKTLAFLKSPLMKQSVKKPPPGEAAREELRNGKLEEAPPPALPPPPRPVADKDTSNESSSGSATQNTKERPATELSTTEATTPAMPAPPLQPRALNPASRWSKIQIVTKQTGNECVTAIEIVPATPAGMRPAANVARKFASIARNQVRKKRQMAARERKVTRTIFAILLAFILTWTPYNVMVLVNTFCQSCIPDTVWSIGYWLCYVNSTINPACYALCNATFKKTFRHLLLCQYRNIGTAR
method.notes: M4 GTPγS PAM assay (CHO-K1 membranes, 35S-GTP binding, with EC20 acetylcholine)
Assay type: biochemical
test.settings: with EC20 acetylcholine (40 nM)
pEC50: −log10 of the molar value.
measurement.label: pEC50

# annotated cases, reported pEC50 shown
Exam item: What does the data say about its pEC50? Entry: Cc1c2c(n(C)c(=O)c1C)CN(C(=O)CC1CN(c3ccc(C(F)(F)F)cc3)C1)C2
Marked response: > 7.30

Exam item: What do you have for Cc1c2c(n(C)c(=O)c1Cl)CN(C(=O)CC1CN(c3ccnc(C(F)(F)F)c3)C1)C2C (centres unmarked) ?
Marked response: > 7.30

Exam item: What do we get for COc1c2c(n(C)c(=O)c1C)CN(C(=O)CC1CN(c3ccc(C(F)(F)F)cc3)C1)C2 ?
Marked response: > 7.30

Exam item: And the next one, Cc1cc(=O)n(C)c2c1CN(C(=O)CC1CN(c3cnnc(C(F)(F)F)c3)C1)C2 ?
Marked response: 6.00 to 6.70

Exam item: And for Cc1c2c(n(C)c(=O)c1F)CN(C(=O)CC1CN(c3cnc(C(F)(F)F)cn3)C1)C2 ?
Marked response: 6.00 to 6.70

Exam item: Follow-up entry: Cc1cc(=O)n(C)c2c1CN(C(=O)CC1CN(c3ccnc(C4CC4)n3)C1)C2
Marked response: 6.70 to 7.30

Further cases:
Exam item: GET /values?readout=pEC50&item= Cc1c2c(n(C)c(=O)c1Cl)CN(C(=O)CC1CN(c3ccc(C(F)(F)F)cc3)C1)C2
Marked response: > 7.30

Exam item: Note, next up: Cc1cc(=O)n(C)c2c1CN(C(=O)CC1CN(c3ccc(F)c(C(F)(F)F)c3)C1)C2
Marked response: 6.00 to 6.70

---

assay.target: hM4 receptors (Homo sapiens)
Construct: expressed in transfected cells; host or cells: CHO cells
Sequence (P08173 whole entry): as above
method.notes: Human M4 PAM PERK assay (CHO cells, TR-FRET, with EC20 acetylcholine)
Assay type: cell-based
pEC50: −log10 of the molar value.
measurement.label: pEC50

Recorded results for 8 compounds are shown here.
Exam item: Which pEC50 value is on record for COc1cccc(N2CC(CC(=O)N3Cc4c(C)cc(=O)n(C)c4C3)C2)c1 ?
Marked response: 6.00 to 6.70

Exam item: Also check Cc1c2c(n(C)c(=O)c1C)CN(C(=O)CC1CN(c3ccc(C4CC4)c(F)c3)C1)C2
Marked response: > 7.30

Exam item: How about Cc1cc(=O)n(C)c2c1CN(C(=O)CC1CN(c3ccc(S(C)(=O)=O)cc3)C1)C2 ?
Marked response: 6.70 to 7.30

Exam item: Check Cc1c2c(n(C)c(=O)c1Cl)CN(C(=O)CC1CN(c3ccc(C(F)(F)F)cc3)C1)C2 too.
Marked response: > 7.30

Exam item: Follow-up item: Cc1c2c(n(C)c(=O)c1C)CN(C(=O)CC1CN(c3ncns3)C1)C2
Marked response: > 7.30

Exam item: Also, Cc1c2c(n(C)c(=O)c1Cl)CN(C(=O)CC1CN(c3ccnc(C(F)(F)F)c3)C1)C2C (centres unmarked) please.
Marked response: > 7.30

Exam item: # repeat for Cc1c2c(n(C)c(=O)c1C)CN(C(=O)CC1CN(c3nc(C4CC4)c(C(F)(F)F)s3)C1)C2
Marked response: 6.00 to 6.70

Exam item: Another compound: Cc1cc(=O)n(C)c2c1CN(C(=O)CC1CN(c3ccnc(C4CC4)c3)C1)C2
Marked response: 6.70 to 7.30

More entries:
Exam item: May I ask what pEC50 has been recorded for Cc1c2c(n(C)c(=O)c1C)CN(C(=O)CC1CN(c3ccnc(C(F)(F)F)c3)C1)C2 ?
Marked response: > 7.30

Exam item: Now this one: Cc1cc(=O)n(C)c2c1C(C)N(C(=O)CC1CN(c3ccc(C(F)(F)F)cc3)C1)C2 (centres unmarked)
Marked response: 6.00 to 6.70

Exam item: Then what about the compound Cc1cc(=O)n(C)c2c1CN(C(=O)CC1CN(c3cccc(F)c3F)C1)C2 ?
Marked response: 6.70 to 7.30

Exam item: Consider next the compound Cc1c2c(n(C)c(=O)c1Cl)CN(C(=O)CC1CN(c3ccccc3C(F)(F)F)C1)C2 in the same way.
Marked response: 6.70 to 7.30

Exam item: // same read-out, input: Cc1c2c(n(C)c(=O)c1C)CN(C(=O)CC1CN(c3ccc(C4CC4)c(F)c3)C1C)C2 (centres unmarked) [Compound I-60]
Marked response: > 7.30

Exam item: Please do the same for Cc1cc(=O)n(C)c2c1CN(C(=O)CC1CN(c3ccnc(C(F)(F)F)c3)C1)C2 as well.
Marked response: > 7.30

Exam item: Okay, and Cc1c2c(n(C)c(=O)c1Cl)CN(C(=O)CC1CN(c3cncnc3)C1)C2 ?
Marked response: > 7.30

Exam item: Also Cc1c2c(n(C)c(=O)c1Cl)CN(C(=O)CC1CN(c3ccncn3)C1)C2 ?
Marked response: > 7.30

---

assay.target: rM4 receptors (Rattus norvegicus, UniProt P08485)
Sequence (P08485 1-478): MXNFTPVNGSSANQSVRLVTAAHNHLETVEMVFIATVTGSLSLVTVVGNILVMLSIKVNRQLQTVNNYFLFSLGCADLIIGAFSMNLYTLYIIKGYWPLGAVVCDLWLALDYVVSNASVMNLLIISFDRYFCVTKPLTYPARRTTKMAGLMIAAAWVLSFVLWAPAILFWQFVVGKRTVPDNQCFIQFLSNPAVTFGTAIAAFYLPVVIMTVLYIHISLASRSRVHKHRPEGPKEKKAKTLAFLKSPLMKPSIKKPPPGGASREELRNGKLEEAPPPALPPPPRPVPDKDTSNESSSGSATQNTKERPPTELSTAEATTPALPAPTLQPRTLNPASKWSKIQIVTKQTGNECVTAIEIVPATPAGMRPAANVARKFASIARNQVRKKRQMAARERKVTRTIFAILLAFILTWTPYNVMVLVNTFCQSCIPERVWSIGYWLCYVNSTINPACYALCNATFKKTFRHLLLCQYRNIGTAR
method.notes: Rat M4 PAM PERK assay (CHO cells, TR-FRET, with EC20 acetylcholine)
measurement.label: EC50

Would you please look over these solved cases?
Exam item: Reported EC50 for Cc1cc(=O)n(C)c2c1CN(C(=O)CC1CN(c3nc(C(F)(F)F)cs3)C1)C2 : what is it?
Marked response: 50 to 200 nM

Exam item: And Cc1cc(=O)n(C)c2c1CN(C(=O)CC1CN(c3cnn(C(F)(F)F)c3)C1)C2 ?
Marked response: > 1000 nM

Exam item: Now give it for Cc1c2c(n(C)c(=O)c1C)CN(C(=O)CC1CN(c3ccc(C4CC4)c(F)c3)C1)C2 too.
Marked response: 50 to 200 nM

Please turn your attention to the following entry.
Exam item: Value lookup for EC50; key = Cc1cc(=O)n(C)c2c1CN(C(=O)CC1CN(c3ccc(OC(F)(F)F)cc3)C1)C2
Marked response: 200 to 1000 nM

---

assay.target: UniProtKB P08485
method.notes: Rat M4 PAM PERK assay (CHO cells, TR-FRET, with EC20 acetylcholine)
Listing: EC50 of selected compounds

Here is how some compounds turned out for EC50.
Exam item: What measured EC50 goes with Cc1cc(=O)n(C)c2c1[C@H](C)N(C(=O)CC1CN(c3ccc(C(F)(F)F)cc3)C1)C2 [Compound I-116] ?
Marked response: > 1000 nM

Exam item: What do you have for COc1cccc(N2CC(CC(=O)N3Cc4c(C)c(C)c(=O)n(C)c4C3)C2)c1 [Compound I-47] ?
Marked response: 200 to 1000 nM

Exam item: What about this compound? Cc1cc(=O)n(C)c2c1CN(C(=O)CC1CN(c3cccnc3)C1)C2 [Compound I-3]
Marked response: 200 to 1000 nM

Exam item: What do you get for Cc1c2c(n(C)c(=O)c1Cl)CN(C(=O)CC1CN(c3cnccn3)C1)C2 [Compound I-72] ?
Marked response: 50 to 200 nM

Exam item: What do you get for Cc1c2c(n(C)c(=O)c1Cl)CN(C(=O)CC1CN(c3ccnc(C(F)(F)F)c3)C1)C2C (centres unmarked) [Compound I-118] ?
Marked response: 50 to 200 nM

---
Exam item: Can you look up the measured EC50 of Cc1cc(=O)n(C)c2c1CN(C(=O)CC1CN(c3ccc(F)c(F)c3)C1)C2 [Compound I-32] for me?
Marked response: 200 to 1000 nM

Exam item: Same for Cc1c2c(n(C)c(=O)c1C)CN(C(=O)CC1CN(c3ccc(F)c(C(F)(F)F)c3)C1)C2 [Compound I-49]
Marked response: 50 to 200 nM

Exam item: Field entry: Cc1cc(=O)n(C)c2c1CN(C(=O)CC1CN(c3ccnc(C4CC4)n3)C1)C2 [Compound I-24]
Marked response: 200 to 1000 nM
